72 kDa type IV collagenase (Homo sapiens, UniProt P08253) pIC50 data
Sequence (P08253 whole entry): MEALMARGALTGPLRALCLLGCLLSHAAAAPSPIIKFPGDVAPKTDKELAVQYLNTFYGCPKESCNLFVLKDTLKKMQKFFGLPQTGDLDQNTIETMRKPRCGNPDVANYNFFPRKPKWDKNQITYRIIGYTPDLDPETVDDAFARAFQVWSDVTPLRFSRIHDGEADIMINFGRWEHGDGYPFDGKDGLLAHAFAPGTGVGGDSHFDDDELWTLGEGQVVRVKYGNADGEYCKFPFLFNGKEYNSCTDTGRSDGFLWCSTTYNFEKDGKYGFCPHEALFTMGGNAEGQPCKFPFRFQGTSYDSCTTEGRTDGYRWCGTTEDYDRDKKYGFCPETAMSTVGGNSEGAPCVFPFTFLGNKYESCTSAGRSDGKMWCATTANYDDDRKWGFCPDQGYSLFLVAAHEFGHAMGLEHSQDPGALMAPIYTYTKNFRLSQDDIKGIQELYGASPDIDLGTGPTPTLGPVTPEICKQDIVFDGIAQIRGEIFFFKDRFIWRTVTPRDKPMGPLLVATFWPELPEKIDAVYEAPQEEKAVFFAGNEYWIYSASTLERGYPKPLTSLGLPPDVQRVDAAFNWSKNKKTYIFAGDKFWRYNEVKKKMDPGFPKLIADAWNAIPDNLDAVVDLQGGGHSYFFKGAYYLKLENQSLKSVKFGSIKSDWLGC
pIC50: −log10 of the molar value.

[
  {
    "MOLECULE": "C[C@@]1(O)c2cccc(O)c2C(O)=C2C(=O)[C@]3(O)C(O)=C(C(N)=O)C(=O)C[C@@H]3C[C@@H]21",
    "pIC50": 5.95
  },
  {
    "MOLECULE": "NS(=O)(=O)c1ccc(N2N=C(c3ccc(Br)cc3)CC2c2cc(Br)ccc2O)cc1 (stereo not drawn)",
    "pIC50": 5.06
  },
  {
    "MOLECULE": "NS(=O)(=O)c1ccc(N2N=C(c3ccc(Br)cc3)CC2c2cc(Cl)ccc2O)cc1 (stereo not drawn)",
    "pIC50": 4.72
  },
  {
    "MOLECULE": "NS(=O)(=O)c1ccc(N2N=C(c3ccccc3Cl)CC2c2cc(Cl)ccc2O)cc1 (stereo not drawn)",
    "pIC50": 4.78
  },
  {
    "MOLECULE": "NS(=O)(=O)c1ccc(N2N=C(c3ccc(Cl)cc3)CC2c2cc(Br)ccc2O)cc1 (stereo not drawn)",
    "pIC50": 4.80
  },
  {
    "MOLECULE": "NS(=O)(=O)c1ccc(N2N=C(c3ccc(Cl)c(Cl)c3)CC2c2ccc(Cl)cc2O)cc1 (stereo not drawn)",
    "pIC50": 4.78
  },
  {
    "MOLECULE": "Cc1ccc(C2=NN(c3ccc(S(N)(=O)=O)cc3)C(c3ccccc3O)C2)cc1C (stereo not drawn)",
    "pIC50": 5.33
  },
  {
    "MOLECULE": "NS(=O)(=O)c1ccc(N2N=C(c3ccccc3Cl)CC2c2cc(Br)ccc2O)cc1 (stereo not drawn)",
    "pIC50": 4.83
  }
]
